I'd appreciate it if you could supply Kd values for the items below.
- System tested: TTR fibrils (Homo sapiens, UniProt P02766)
- Protocol: Titration of TTR fibrils on a fixed probe concentration
- Assay type: binding
Please state the number and follow it with the unit.

Given the compound `Oc1ccc(/C=C/c2ccc3cc4ccccc4cc3c2)cc1O` , what is its reported Kd? 7.4 µM

Given the compound `Oc1ccc(/C=C/c2ccc3ccccc3c2)cc1O` , what is its reported Kd? 12.3 µM

Given the compound `Oc1ccc(/C=C/c2cc3ccc4cccc5ccc(c2)c3c45)cc1O` , what is its reported Kd? 6 µM

Given the compound Oc1ccc(/C=C/c2ccccc2)cc1O [Compound 2, (E)-4-Styrylbenzene-1,2-diol] , what is its reported Kd? 15.1 µM

The reported measurements were obtained from paper PMC6641930.
